# Tested on: Phytophthora infestans
# Type: cell-based
# experimental conditions: single active substance, 1 ppm, microtiter plate, day 7, 405 nm
Below, each of the molecules is paired with its reported Observed effect (%) value.
measured quantity: Observed effect (%)

> print(dat)
                                    molecule            assay.system    measured.quantity  unit.symbol  test.value
 1  CC(C)C1(C)N=C(c2nc3ccccc3cc2C(=O)O)NC1=O (centres unmarked) [Imazaquin (I.Cc)]  Phytophthora infestans  Observed effect (%)            %           8
 2  CC(C)C1(C)N=C(c2ncccc2C(=O)O)NC1=O (centres unmarked) [Imazapyr (I.Ca)]  Phytophthora infestans  Observed effect (%)            %           1
 3  CCC(CC)Nc1c([N+](=O)[O-])cc(C)c(C)c1[N+](=O)[O-] [Pendimethalin (I.Da)]  Phytophthora infestans  Observed effect (%)            %           7
 4  CP(=O)(O)CCC(N)C(=O)O (centres unmarked) [Glufosinate (I.Ab)]  Phytophthora infestans  Observed effect (%)            %           3
 5  C[n+]1ccc(-c2cc[n+](C)cc2)cc1 [Paraquat (I.Fa), paraquat, reference compound]  Phytophthora infestans  Observed effect (%)            %           4
 6  CCC/C(=N\OCC)C1=C(O)CC(C2CCCSC2)CC1=O (centres unmarked) [Cycloxydim (I.Ba), cycloxydim, reference compound]  Phytophthora infestans  Observed effect (%)            %           9
 7         CCCCCCCCc1c(CC)nc2ncnn2c1N [II-7]  Phytophthora infestans  Observed effect (%)            %           7
 8  O=C(O)CNCP(=O)(O)O [Glyphosate (I.Aa), glyphosate, reference compound]  Phytophthora infestans  Observed effect (%)            %           4
 9  CCc1cnc(C2=NC(C)(C(C)C)C(=O)N2)c(C(=O)O)c1 (centres unmarked) [Imazethapyr (I.Cb)]  Phytophthora infestans  Observed effect (%)            %           3
10  Cc1cnc(C2=NC(=O)C(C)(C(C)C)N2)c(C(=O)O)c1 (centres unmarked) [Imazapic (I.Cd)]  Phytophthora infestans  Observed effect (%)            %           4
11  CCC/C(=N\OCC)C1=C(O)CC(CC(C)SCC)CC1=O (centres unmarked) [Sethoxydim (I.Bc), sethoxydim, reference compound]  Phytophthora infestans  Observed effect (%)            %           2

All figures here come from patent US8461077B2.
